Each entry below carries its recorded pIC50.
- STUDY SYSTEM: GPIIb-IIIa (Homo sapiens, UniProt P05106+P08514)
- Construct: Purified platelet GPIIb-IIIa receptor was prepared as described by Fitzgerald
- Sequence (P08514 32-887 limits assumed): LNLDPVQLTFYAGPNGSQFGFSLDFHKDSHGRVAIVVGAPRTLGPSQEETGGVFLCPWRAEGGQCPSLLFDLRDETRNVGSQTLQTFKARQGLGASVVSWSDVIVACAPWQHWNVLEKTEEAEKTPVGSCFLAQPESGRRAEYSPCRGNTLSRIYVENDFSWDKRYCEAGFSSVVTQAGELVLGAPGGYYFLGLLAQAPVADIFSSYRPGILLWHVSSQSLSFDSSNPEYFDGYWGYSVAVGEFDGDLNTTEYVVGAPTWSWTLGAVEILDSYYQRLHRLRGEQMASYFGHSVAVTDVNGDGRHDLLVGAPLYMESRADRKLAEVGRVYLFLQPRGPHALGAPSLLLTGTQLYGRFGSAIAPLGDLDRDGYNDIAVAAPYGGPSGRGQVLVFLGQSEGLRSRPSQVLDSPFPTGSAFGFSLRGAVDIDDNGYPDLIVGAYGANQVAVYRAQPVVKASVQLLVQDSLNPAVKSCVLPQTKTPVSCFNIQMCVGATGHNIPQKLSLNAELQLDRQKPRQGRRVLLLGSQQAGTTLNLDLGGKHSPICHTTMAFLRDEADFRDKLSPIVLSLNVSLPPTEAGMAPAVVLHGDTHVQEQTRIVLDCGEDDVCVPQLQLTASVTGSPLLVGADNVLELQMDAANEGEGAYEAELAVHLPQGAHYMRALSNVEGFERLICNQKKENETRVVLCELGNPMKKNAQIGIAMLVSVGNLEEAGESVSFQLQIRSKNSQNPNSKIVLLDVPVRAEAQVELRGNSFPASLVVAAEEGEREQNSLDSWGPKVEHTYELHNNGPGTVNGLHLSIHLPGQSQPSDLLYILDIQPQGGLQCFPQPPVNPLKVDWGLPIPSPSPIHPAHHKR
- Sequence (P05106 27-788): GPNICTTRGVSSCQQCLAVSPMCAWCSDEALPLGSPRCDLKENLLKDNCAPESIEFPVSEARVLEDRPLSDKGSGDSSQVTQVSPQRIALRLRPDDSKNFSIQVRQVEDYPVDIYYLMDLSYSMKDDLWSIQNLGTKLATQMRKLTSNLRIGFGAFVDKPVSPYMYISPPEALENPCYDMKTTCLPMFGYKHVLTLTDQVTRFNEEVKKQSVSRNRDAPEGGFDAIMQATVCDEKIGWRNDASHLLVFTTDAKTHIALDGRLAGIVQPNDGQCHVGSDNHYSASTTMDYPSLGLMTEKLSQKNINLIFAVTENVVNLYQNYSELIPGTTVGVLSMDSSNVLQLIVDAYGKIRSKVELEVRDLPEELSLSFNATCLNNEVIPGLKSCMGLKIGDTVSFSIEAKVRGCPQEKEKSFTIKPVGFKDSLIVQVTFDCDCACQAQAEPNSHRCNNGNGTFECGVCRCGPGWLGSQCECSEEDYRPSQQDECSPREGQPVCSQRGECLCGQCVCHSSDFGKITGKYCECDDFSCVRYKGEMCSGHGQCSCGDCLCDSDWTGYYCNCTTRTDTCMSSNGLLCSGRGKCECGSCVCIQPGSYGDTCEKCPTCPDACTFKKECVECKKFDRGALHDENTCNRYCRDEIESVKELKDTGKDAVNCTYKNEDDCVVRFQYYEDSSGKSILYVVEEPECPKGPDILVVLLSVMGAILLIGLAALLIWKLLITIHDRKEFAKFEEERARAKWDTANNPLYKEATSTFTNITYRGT
- PROTOCOL DESCRIPTION: ELISA IIb-IIIa assay (fibrinogen binding to immobilized GPIIb-IIIa)
- CONDITION DESCRIPTION: purified platelet GPIIb-IIIa receptor coated on ELISA plates; biotin-labeled fibrinogen 10 nM, 3 hours at 25° C.
pIC50: −log10 of the molar value. Structures can show the parent of a compound that is named as a salt.
ENDPOINT LABEL: pIC50

MOLECULE	MODIFIER	VALUE
CCOCCCC(CC(=O)O)N1CCc2cc(OCCCC3CCNCC3)ccc2C1=O (stereo not drawn)	=	6.70
CCOC(=O)CC1CCc2cc(NC(=O)c3ccc(C(=N)NC)cc3)ccc2O1 (racemic) [Example 57, Hydrochloride]	<	5.00
CCOC(=O)CC1CCc2cc(NC(=O)c3ccc(C(=N)N)cc3F)ccc2O1 (racemic) [Example 69, Hydrochloride]	=	8.05
N=C(N)c1ccc(C(=O)Nc2ccc3c(c2)CCC(CC(=O)O)O3)c(Cl)c1 (racemic)	=	7.85
CCOC(=O)CC1CCc2cc(NC(=O)c3ccc(C(=N)NC(=O)OC)cc3F)ccc2O1 (racemic)	=	7.00
CC1(CCCCCCCCC(=O)O)C=Cc2cc(C(=N)N)ccc2O1 (racemic)	=	5.74
N=C(N)c1ccc(NC(=O)c2ccc3c(c2)CCC(CC(=O)O)C3)cc1 (stereo not drawn)	=	7.28
CCOC(=O)CC1CCc2cc(NC(=O)c3ccc(C(=N)N(C)C)cc3)ccc2O1 (racemic) [Example 73, Hydrochloride]	<	5.00
N=C(N)c1ccc(COc2ccc3c(c2)CCC(OCC(=O)O)C3)cc1 (stereo not drawn)	=	6.72
N=C(N)c1ccc(NC(=O)c2ccc3c(c2)CCC(OCC(=O)O)C3)cc1 (stereo not drawn)	=	7.51
O=C(O)CN1CCc2cc(OCCCC3CCNCC3)ccc2C1	=	6.66
N=C(N)c1ccc(C(=O)Nc2ccc3c(c2)CCC(CC(=O)O)O3)cc1 (racemic)	=	8.40
CCCCCC(CC(=O)O)N1CCc2cc(OCc3ccc(C(=N)N)cc3)ccc2C1=O (racemic)	=	7.62
N=C(N)c1cccc(CCc2ccc3c(c2)CCN(CC(=O)O)C3=O)c1	=	4.96
N=C(N)c1ccc(C#Cc2ccc3c(c2)CCN(CC(=O)O)C3=O)cc1	=	7.52
N=C(N)c1ccc(C(=O)Nc2ccc3c(c2)OCC(OCC(=O)O)C3)cc1 (stereo not drawn)	=	7.34
N=C(N)c1cccc(C#Cc2ccc3c(c2)CCN(CC(=O)O)C3=O)c1	=	4.35
N=C(N)c1ccc(COc2ccc3c(c2)CCC(CC(=O)O)C3)cc1 (racemic)	=	6.52
N=C(N)c1ccc(C(=O)Nc2ccc3c(c2)CCN(CC(=O)O)C3)cc1	=	8.30
CCCC(CC(=O)O)N1CCc2cc(OCc3ccc(C(=N)N)cc3)ccc2C1=O (racemic)	=	6.30
N=C(N)c1ccc(COc2ccc3c(c2)CCN(CC(=O)O)C3=O)cc1	=	6.22
O=C(O)COC1CCc2cc(OCCCC3CCNCC3)ccc2C1 (stereo not drawn)	=	6.12
CC1(CCC(=O)O)C=Cc2cc(OCc3ccc(C(=N)N)cc3)ccc2O1 (racemic) [Example 53, Hydrochloride]	=	6.14
CCNC(=N)c1ccc(C(=O)Nc2ccc3c(c2)CCC(CC(=O)O)O3)cc1 (racemic)	=	7.73
N=C(NCc1ccccc1)c1ccc(C(=O)Nc2ccc3c(c2)CCC(CC(=O)O)O3)cc1 (racemic)	=	8.03
N=C(N)c1ccc(COc2ccc3c(c2)CCC(NCC(=O)O)C3)cc1 (stereo not drawn)	=	6.28
N=C(N)c1ccc(C(=O)Nc2ccc3c(c2)CCC(CC(=O)O)C3=O)c(F)c1 (stereo not drawn)	=	8.40
N=C(N)c1ccc(COc2ccc3c(c2)CCN(CC(=O)O)C3)cc1	=	7.52
N=C(N)c1ccc(C(=O)Nc2ccc3c(c2)CCC(CCC(=O)O)C3)cc1 (stereo not drawn)	=	6.62
CNC(=O)C(CC(=O)O)N1CCc2cc(OCc3ccc(C(=N)N)cc3)ccc2C1=O (racemic)	=	7.10
CNC(=N)c1ccc(C(=O)Nc2ccc3c(c2)CCC(CC(=O)O)O3)cc1 (racemic)	=	7.48
CCCCCCNC(=O)C(CC(=O)O)N1CCc2cc(OCc3ccc(C(=N)N)cc3)ccc2C1=O (racemic)	=	7.48
CCOC(=O)CCC1(C)CCc2cc(NC(=O)c3ccc(C(=N)N)cc3)ccc2O1 (racemic) [Example 50, Hydrochloride]	=	5.41
